The origin of these recorded values is PubChem BioAssay (NCI).

# Tested on: PC-3 prostate
# assay overview: NCI tumour cell line growth inhibition, 48 h
Where a SMILES comes first, the peptide text is derived from it.
Examples of molecules with documented TGI follow.

stdin: Hello, please tell me recorded TGI for this one: NC(=O)C1CCCN1C(=O)C(N)Cc1ccccc1 (stereo not drawn) (H-Phe-Pro-NH2; configuration not given here)
stdout: > 100 µM

* * *

Listed here: items and their measured TGI.
# Test system: NCI-H23 lung
# assay overview: NCI tumour cell line growth inhibition, 48 h

compound	measure name	result
O=C1CC(c2ccccc2)Cc2nc3ccc(Br)cc3cc21 (stereo not given)	TGI	> 100 µM
O=C(O)c1cc(=O)cc(C(=O)O)o1	TGI	> 100 µM
COc1ccc(NC2=C(I)C(=O)c3ncccc3C2=O)cc1	TGI	1.68 µM
Nc1[nH]c(=S)nc2nc3c(c(-c4ccccc4)c12)CCCC3	TGI	> 100 µM

stdin: Read the entry N#CC1=C(N)NC(=S)NC12Nc1ccccc1S2 (stereo not given) and write its reported TGI.
stdout: > 100 µM

stdin: Find the measured TGI of `CN(C)CCNC(=O)c1cc(Cl)cc2cc3ccccc3nc12` and report it.
stdout: 3.42 µM

stdin: Return TGI for the following compound: `O=C1C=CC(=C(c2ccccc2)c2ccc(O)cc2)C=C1`
stdout: 42.9 µM

* * *

Documented TGI across a set of molecules
# System: BT-549 breast
# assay overview: NCI tumour cell line growth inhibition, 48 h
Number only, in µM; omit the unit.

Look over these answered cases.
compound structure string	unit text	TGI
COc1cc(-c2nc3sc(C)cn3c2/C=C2\C(=O)Nc3ccccc32)c(Br)c(OC)c1OC	µM	60.1
Cc1ccc2cccc(OC(=O)Nc3cccc(C(F)(F)F)c3)c2n1	µM	26.8

As a next step, examine the molecule that follows.
stdin: Provide TGI value for the following molecule: `Cc1cc(C)nc(NS(=O)(=O)c2ccc(Nc3c4ccccc4nc4c(C(=O)NC(CO)(CO)CO)cccc34)cc2)n1`
stdout: 44.2

* * *

# System: HT29 colon
# assay overview: NCI tumour cell line growth inhibition, 48 h; in the data active means GI50 below about 0.43 µM; inactive means the rest
# output must be one of yes = active, no = inactive

The examples below pair each entry with its known result.
molecule	discrete label
Cc1cnc2oc3ccc(O)cc3c2c1-c1ccccc1	no
O=C(O)c1cc(=O)cc(C(=O)O)o1	no
C=C1C(=O)O[C@H]2[C@H](OC(C)=O)[C@@H](C)CCCC3(C)OC3CCC3(CO3)[C@H](O)C[C@@H]12 (stereo partly specified)	no
COc1cc(-c2nc3sc(C)cn3c2/C=C2\C(=O)Nc3ccccc32)c(Br)c(OC)c1OC	no
CCOC(=O)C1=C(C)NC(=O)NC1CN1C(=O)c2ccccc2C1=O (stereo unspecified)	no

Shift focus to the following entry.
stdin: Hi, do you know how O=[N+]([O-])c1ccc(C(Cl)C(Cl)c2ccc(C(Cl)C(Cl)c3ccc([N+](=O)[O-])cc3[N+](=O)[O-])cc2)c([N+](=O)[O-])c1 (stereo unspecified) came out in this test?
stdout: yes

* * *

# System: T-47D breast
# assay overview: NCI tumour cell line growth inhibition, 48 h
List of GI50 values.

Please review the following examples before continuing.
molecule	target or system	GI50
O=c1c2ccccc2c(/C=N\NC2=NCCN2)c2oc3ccccc3n12	T-47D breast	17600 nM
C#CC(=O)Nc1cccc2c1cc(C)n2-c1nc2c(c(NCc3ccccc3)n1)CCCC2	T-47D breast	697 nM
O=C(O)c1cc(=O)cc(C(=O)O)o1	T-47D breast	> 100000 nM
COc1cc(/C=C2\CCC/C(=C\c3ccc(O)c(OC)c3)C2=O)ccc1O	T-47D breast	1910 nM

Here is the next item to consider.
stdin: Write down measured GI50 (T-47D breast) for this molecule. COc1ccc(C2CC(c3ccc(Nc4ccnc5cc(Cl)ccc45)cc3)=NN2C=O)cc1 (stereo not given)
stdout: 1380 nM

* * *

Listed here are compounds together with their documented TGI.
# Tested on: MCF7 breast
# assay overview: NCI tumour cell line growth inhibition, 48 h

Example results:
compound	target or system	TGI
COc1ccc2[nH]c3c(c2c1)CC(=O)N1CCCC(CC3O)C1 (stereo not drawn)	MCF7 breast	> 100 µM
COc1ccc2c(c1)-c1c(c3cc(OC)ccc3n1CCCN(C)C)CC2	MCF7 breast	26.5 µM
COc1cc(/C=N/c2nc3cc4sc(/N=C/c5cc(OC)c(OC)c(OC)c5)nc4cc3s2)cc(OC)c1OC	MCF7 breast	> 100 µM
CCOC(=O)C1(C/C=C/CCl)CCCC1=O (stereo not drawn)	MCF7 breast	48.4 µM
CCOC(=O)CC1(Cc2ccc(OCc3ccccc3)cc2)C(=O)OC(c2ccccc2)N1C(=O)c1ccccc1 (stereo not drawn)	MCF7 breast	> 100 µM
Oc1ccc2c3c1OC1c4[nH]ncc4C[C@H]4[C@@H](C2)N(CC2CC2)CC[C@]314 (stereo partly drawn)	MCF7 breast	> 100 µM

stdin: Please report TGI for the following compound: O=S1(=O)c2ccccc2C(Nc2ccccc2)N1c1ccccc1 (stereo not drawn)
stdout: > 100 µM

stdin: Supply TGI value. Item: `OC[C@H]1NC[C@@H](O)[C@@H](O)[C@H]1O`
stdout: > 100 µM

stdin: Let me know recorded TGI for `CN(C)CCCSc1ccccc1NC1=C(Cl)C(=O)C(Nc2ccccc2SCCCN(C)C)=C(Cl)C1=O` , thanks.
stdout: 3.94 µM

stdin: Please report TGI for the following compound: `O=C(O)C1(Cc2ccccc2)Cc2cc3c(cc2C1)CCC3`
stdout: > 100 µM

* * *

# System: SK-MEL-5 melanoma
# assay overview: NCI tumour cell line growth inhibition, 48 h; in the data active means GI50 below about 0.43 µM; inactive means the rest
Thanks in advance; please answer with one of these: True (active), False (inactive)

Worked examples, 8 compounds total:
compound	target or system	discrete label
COc1ccc(/C=C2\COc3ccc(O)c(O)c3C2=O)c(OC)c1OC	SK-MEL-5 melanoma	False
C=C1C(=O)O[C@H]2[C@H](OC(C)=O)[C@@H](C)CCCC3(C)OC3CCC3(CO3)[C@H](O)C[C@@H]12 (stereo not given in full)	SK-MEL-5 melanoma	False
COc1cc(/C=C2\CCC/C(=C\c3ccc(O)c(OC)c3)C2=O)ccc1O	SK-MEL-5 melanoma	False
COC1=C(C)C(=O)c2c(c(CCCl)c3n2CCC3OC(C)=O)C1=O (stereo not given)	SK-MEL-5 melanoma	True
O=C1CC(c2ccccc2)Cc2nc3ccc(Br)cc3cc21 (stereo not given)	SK-MEL-5 melanoma	True
COc1ccc(CCN(CC(=O)N(CC(N)=O)C2CCC[C@@H]2OCc2ccccc2)C(=O)CN(C(=O)CN(CCc2ccc(Cl)cc2)C(=O)CN(C(=O)CN(C)Cc2ccccc2F)[C@H](C)C2CCCCC2)[C@H](C)C2CCCCC2)cc1OC (stereo not given in full)	SK-MEL-5 melanoma	False
CC(C)(C)c1cc(/C=N/NC(=O)c2ccccc2NC(=O)c2cccs2)c(O)c(C(C)(C)C)c1	SK-MEL-5 melanoma	False
O=C(COc1cccc(/C=C2\CSc3ccc(Cl)cc3C2=O)c1)c1ccc(Cl)cc1	SK-MEL-5 melanoma	False

stdin: For this compound, state the assay outcome: `COc1cc(/C=C/c2cc(/C=C/c3ccc(O)c(OC)c3)n(C(=O)Nc3ccccc3Cl)n2)ccc1O`
stdout: True

stdin: Tell me the recorded outcome of this test for `O=C(C=P(c1ccccc1)(c1ccccc1)c1ccccc1)CCl` .
stdout: False

* * *

# Test system: SNB-19 CNS
# assay overview: NCI tumour cell line growth inhibition, 48 h; in the data active = GI50 below about 0.43 µM; inactive = the rest
Output constraint: value belongs to 1.0 (active), 0.0 (inactive)

stdin: Short answer needed: outcome of this test for COC1=C(C)C(=O)c2c(c(CCCl)c3n2CCC3OC(C)=O)C1=O (stereo not given) ?
stdout: 1.0

stdin: Answer briefly: the call reported for `Cn1cc(-c2nc(-c3c[nH]c4ncccc34)cs2)c2ccccc21` in this assay.
stdout: 0.0

* * *

// values below are reported TGI
# Test system: 786-0 renal
# assay overview: NCI tumour cell line growth inhibition, 48 h

Below, 2 compounds whose answers are already recorded.
compound	target or system	measure name	result
CCOC(=O)C(NC(C)=O)(Nc1ccc(S(N)(=O)=O)cc1)C(F)(F)F (stereo not given)	786-0 renal	TGI	> 100 µM
Cc1ccc(NC(=O)CC/C(CC(=O)C(C)(C)C)=N\NC(=O)C[n+]2ccccc2)cc1C	786-0 renal	TGI	> 100 µM

stdin: Please indicate TGI recorded for `O/N=C(/CC(O)(C(F)(F)F)C(F)(F)F)c1ccccc1`
stdout: > 10 µM

stdin: Recall and state the measured TGI for `CC(C)(C)C(=O)Nc1cccc2oc(-c3ccccc3)cc12` .
stdout: > 100 µM

stdin: Fill in TGI for record O=C(O)CC(NC(=O)/C(=C/c1ccccc1)NC(=O)c1ccccc1)C(=O)O (stereo not given)
stdout: > 100 µM

stdin: Item CC(C)CCCC(C)[C@H]1CC[C@H]2n3c(nc4ccccc43)CCC[C@]12C (stereo not given in full) : provide TGI
stdout: 37.3 µM

stdin: Given CCC1C(C(=O)Nc2ccccc2C)=C(C)NC(C)=C1c1ccccc1C (stereo not given) , respond with its TGI.
stdout: > 100 µM

stdin: Give TGI for the following compound: `COc1ccc(NC2=C(I)C(=O)c3ncccc3C2=O)cc1`
stdout: 4.74 µM

stdin: Return reported TGI. Input compound: `O=C(O)c1cc(=O)cc(C(=O)O)o1`
stdout: > 100 µM

stdin: Answer with the recorded TGI of O=C1CSC(c2ccccc2)N1c1ccc(-n2c(-c3ccccc3)nc3ccccc3c2=O)cc1 (stereo not given) only.
stdout: > 100 µM
